Listing of entries alongside the reported Tm.
experiment: melting temperature; melt of duplexes; conditions: sodium 0.0675 M; strand 1 µM
Express your answer in °C, writing the number without its unit.

In the examples that follow, each entry is paired with its recorded Tm.
[
  {
    "SUBSTANCE": "CGACGTGCTTTATGTGCTG+CAGCACATTTCGCACGTCG ((((((((...((((((((+))))))))...))))))))",
    "UNIT ANNOTATION": "°C",
    "Tm": 47.7
  },
  {
    "SUBSTANCE": "CGACGTGCAAAATGTGCTG+CAGCACATTTTGCACGTCG (((((((((((((((((((+)))))))))))))))))))",
    "UNIT ANNOTATION": "°C",
    "Tm": 62.4
  },
  {
    "SUBSTANCE": "CGACGTGCAGCATGTGCTG+CAGCACATTCGGCACGTCG ((((((((.(.((((((((+)))))))).).))))))))",
    "UNIT ANNOTATION": "°C",
    "Tm": 49.7
  }
]

Exam item: # query: Tm of entry CGACGTGCGGAATGTGCTG+CAGCACATTATGCACGTCG ((((((((..(((((((((+)))))))))..))))))))
Marked response: 55.4

Exam item: # query: Tm of entry CGACGTGCACAATGTGCTG+CAGCACATGTAGCACGTCG ((((((((...((((((((+))))))))...))))))))
Marked response: 50.7

Exam item: # query: Tm of entry CGACGTGCTTAATGTGCTG+CAGCACATTGAGCACGTCG (((((((((.(((((((((+))))))))).)))))))))
Marked response: 56.9

Exam item: # query: Tm of entry CGACGTGCACTATGTGCTG+CAGCACATGTCGCACGTCG ((((((((...((((((((+))))))))...))))))))
Marked response: 46.4

Exam item: # query: Tm of entry CGACGTGCGCAATGTGCTG+CAGCACATGGGGCACGTCG ((((((((.(.((((((((+)))))))).).))))))))
Marked response: 56.5

Exam item: # query: Tm of entry CGACGTGCGACATGTGCTG+CAGCACATTCCGCACGTCG (((((((((..((((((((+))))))))..)))))))))
Marked response: 53.6

Exam item: # query: Tm of entry CGACGTGCAAGATGTGCTG+CAGCACATGGGGCACGTCG ((((((((...((((((((+))))))))...))))))))
Marked response: 50.8

Exam item: # query: Tm of entry CGACGTGCTATATGTGCTG+CAGCACATTCAGCACGTCG (((((((((..((((((((+))))))))..)))))))))
Marked response: 51

Exam item: # query: Tm of entry CGACGTGCGCCATGTGCTG+CAGCACATTCCGCACGTCG (((((((((..((((((((+))))))))..)))))))))
Marked response: 50.9

Exam item: # query: Tm of entry CGACGTGCTCTATGTGCTG+CAGCACATAAGGCACGTCG ((((((((..(((((((((+)))))))))..))))))))
Marked response: 52.2

Exam item: # query: Tm of entry CGACGTGCGCGATGTGCTG+CAGCACATATAGCACGTCG ((((((((...((((((((+))))))))...))))))))
Marked response: 51.8

Exam item: # query: Tm of entry CGACGTGCTGAATGTGCTG+CAGCACATCGTGCACGTCG ((((((((...((((((((+))))))))...))))))))
Marked response: 46.3

Exam item: # query: Tm of entry CGACGTGCACTATGTGCTG+CAGCACATTCCGCACGTCG ((((((((...((((((((+))))))))...))))))))
Marked response: 42.2

Exam item: # query: Tm of entry CGACGTGCTAGATGTGCTG+CAGCACATCCAGCACGTCG (((((((((.(((((((((+))))))))).)))))))))
Marked response: 56.1

Exam item: # query: Tm of entry CGACGTGCTCTATGTGCTG+CAGCACATTCGGCACGTCG ((((((((...((((((((+))))))))...))))))))
Marked response: 48.7

Exam item: # query: Tm of entry CGACGTGCCCCATGTGCTG+CAGCACATCCGGCACGTCG (((((((((..((((((((+))))))))..)))))))))
Marked response: 51.4

Exam item: # query: Tm of entry CGACGTGCGCCATGTGCTG+CAGCACATAGAGCACGTCG ((((((((.(.((((((((+)))))))).).))))))))
Marked response: 54.4

Exam item: # query: Tm of entry CGACGTGCCGGATGTGCTG+CAGCACATCTCGCACGTCG ((((((((..(((((((((+)))))))))..))))))))
Marked response: 54.1

Exam item: # query: Tm of entry CGACGTGCCCGATGTGCTG+CAGCACATTAAGCACGTCG ((((((((...((((((((+))))))))...))))))))
Marked response: 49.5

Exam item: # query: Tm of entry CGACGTGCATTATGTGCTG+CAGCACATTAGGCACGTCG ((((((((.(.((((((((+)))))))).).))))))))
Marked response: 51.9

Exam item: # query: Tm of entry CGACGTGCTTGATGTGCTG+CAGCACATTCAGCACGTCG (((((((((..((((((((+))))))))..)))))))))
Marked response: 51.9

Exam item: # query: Tm of entry CGACGTGCTCCATGTGCTG+CAGCACATATTGCACGTCG ((((((((...((((((((+))))))))...))))))))
Marked response: 47.9

Exam item: # query: Tm of entry CGACGTGCGTAATGTGCTG+CAGCACATCATGCACGTCG ((((((((.(.((((((((+)))))))).).))))))))
Marked response: 52.3

* * *

Listing of entries alongside the reported Tm.
assay: melting temperature; melt of duplexes; details: sodium 0.0675 M; strand 1 µM
Express your answer in °C, writing the number without its unit.

In the examples that follow, each entry is paired with its recorded Tm.
[
  {
    "SUBSTANCE": "CGACGTGCATTATGTGCTG+CAGCACATAATGCACGTCG (((((((((((((((((((+)))))))))))))))))))",
    "Tm [°C]": 60.7
  },
  {
    "SUBSTANCE": "CGACGTGCTTCATGTGCTG+CAGCACATCTGGCACGTCG ((((((((...((((((((+))))))))...))))))))",
    "Tm [°C]": 48.9
  },
  {
    "SUBSTANCE": "CGACGTGCTCGATGTGCTG+CAGCACATTAGGCACGTCG ((((((((...((((((((+))))))))...))))))))",
    "Tm [°C]": 50.9
  }
]

Exam item: # query: Tm of entry CGACGTGCTTTATGTGCTG+CAGCACATATCGCACGTCG ((((((((..(((((((((+)))))))))..))))))))
Marked response: 49.1

* * *

Listing of entries alongside the reported Tm.
assay: melting temperature; melt of duplexes; conditions: sodium 0.0675 M; strand 1 µM
Express your answer in °C, writing the number without its unit.

In the examples that follow, each entry is paired with its recorded Tm.
[
  {
    "SUBSTANCE": "CGACGTGCGACATGTGCTG+CAGCACATCCCGCACGTCG (((((((((..((((((((+))))))))..)))))))))",
    "UNIT ANNOTATION": "°C",
    "Tm": 52.3
  },
  {
    "SUBSTANCE": "CGACGTGCGGGATGTGCTG+CAGCACATACCGCACGTCG ((((((((((.((((((((+)))))))).))))))))))",
    "UNIT ANNOTATION": "°C",
    "Tm": 63.1
  },
  {
    "SUBSTANCE": "CGACGTGCAAGATGTGCTG+CAGCACATGGCGCACGTCG ((((((((...((((((((+))))))))...))))))))",
    "UNIT ANNOTATION": "°C",
    "Tm": 51.3
  },
  {
    "SUBSTANCE": "CGACGTGCGTGATGTGCTG+CAGCACATCACGCACGTCG (((((((((((((((((((+)))))))))))))))))))",
    "UNIT ANNOTATION": "°C",
    "Tm": 66.2
  }
]

Exam item: # query: Tm of entry CGACGTGCCCGATGTGCTG+CAGCACATAGTGCACGTCG ((((((((.(.((((((((+)))))))).).))))))))
Marked response: 48

Exam item: # query: Tm of entry CGACGTGCTAGATGTGCTG+CAGCACATGTAGCACGTCG ((((((((((.((((((((+)))))))).))))))))))
Marked response: 56.8

Exam item: # query: Tm of entry CGACGTGCGCGATGTGCTG+CAGCACATGATGCACGTCG ((((((((...((((((((+))))))))...))))))))
Marked response: 51
